Would you kindly list residual activity for each of these compounds?
# assayed_target: Casein kinase II subunit alpha' (Homo sapiens) (UniProt P19784)
# Sequence (P19784 whole entry, looked up): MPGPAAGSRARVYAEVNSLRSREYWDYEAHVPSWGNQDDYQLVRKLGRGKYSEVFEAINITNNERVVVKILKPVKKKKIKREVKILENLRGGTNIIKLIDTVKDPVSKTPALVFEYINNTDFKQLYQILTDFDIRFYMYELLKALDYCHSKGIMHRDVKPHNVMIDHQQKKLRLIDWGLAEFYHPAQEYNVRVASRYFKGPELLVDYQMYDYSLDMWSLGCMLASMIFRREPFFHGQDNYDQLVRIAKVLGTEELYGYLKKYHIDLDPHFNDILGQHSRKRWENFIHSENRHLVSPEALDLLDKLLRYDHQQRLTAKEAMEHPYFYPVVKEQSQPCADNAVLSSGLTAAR
# experimental_conditions: at 1 µM
Unit % implied. Number only.

Determine reported residual activity for "O=[N+]([O-])/C=C/c1ccc2c(c1)OCO2" ; test system: Casein kinase II subunit alpha' (Homo sapiens) (UniProt P19784).
134

Determine reported residual activity for "O=c1[nH]c2ccccc2n1C1CCN(Cc2ccc(-c3nc4cc5[nH]cnc5cc4nc3-c3ccccc3)cc2)CC1" ; test system: Casein kinase II subunit alpha' (Homo sapiens) (UniProt P19784).
113

Determine reported residual activity for "CCc1nc(-c2ccc(OC)cc2)[nH]c1-c1ccncc1" ; test system: Casein kinase II subunit alpha' (Homo sapiens) (UniProt P19784).
121

Determine reported residual activity for "COc1ccc2c(c[n+](C)c3c4cc5c(cc4ccc23)OCO5)c1OC" ; test system: Casein kinase II subunit alpha' (Homo sapiens) (UniProt P19784).
126

Determine reported residual activity for "COc1cc2ncnc(Nc3ccc(OCc4ccccc4)cc3)c2cc1OC" ; test system: Casein kinase II subunit alpha' (Homo sapiens) (UniProt P19784).
121

Determine reported residual activity for "O=C1c2ccccc2-c2nc3nnnn3nc21" ; test system: Casein kinase II subunit alpha' (Homo sapiens) (UniProt P19784).
129

Determine reported residual activity for "c1cc(-c2cnn3cc(-c4ccc(OCCN5CCCCC5)cc4)cnc23)ccn1" ; test system: Casein kinase II subunit alpha' (Homo sapiens) (UniProt P19784).
26

Determine reported residual activity for C[S+]([O-])c1ccc(-c2nc(-c3ccc(F)cc3)c(-c3ccncc3)[nH]2)cc1 (stereo unspecified) ; test system: Casein kinase II subunit alpha' (Homo sapiens) (UniProt P19784).
122

Determine reported residual activity for "CN[C@@H]1C[C@H]2O[C@@](C)([C@@H]1OC)n1c3ccccc3c3c4c(c5c6ccccc6n2c5c31)C(=O)NC4" ; test system: Casein kinase II subunit alpha' (Homo sapiens) (UniProt P19784).
83

Determine reported residual activity for "COc1cc(OC)c(/C=C2\C(=O)Nc3ccccc32)c(OC)c1" ; test system: Casein kinase II subunit alpha' (Homo sapiens) (UniProt P19784).
94

Determine reported residual activity for "COC(=O)[C@@]1(O)C[C@H]2O[C@]1(C)n1c3ccccc3c3c4c(c5c6ccccc6n2c5c31)C(=O)NC4" ; test system: Casein kinase II subunit alpha' (Homo sapiens) (UniProt P19784).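 Further: residual kinase activity of CSNK2A2 expressed as percent of untreated control, so lower values mean stronger inhibition, with Jnk Inhibitor II at 100 µM as reference inhibitor.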
108

====

# assayed_target: Serine/threonine-protein kinase TBK1 (Homo sapiens)
# experimental_conditions: at 10 µM
Lab note - cut at 40% for residual activity: Fulfilled if strictly below, Not fulfilled if not.

Would you kindly verify if residual activity of "COC(=O)[C@@]1(O)C[C@H]2O[C@]1(C)n1c3ccccc3c3c4c(c5c6ccccc6n2c5c31)C(=O)NC4" is strictly less than 40%?
Fulfilled

Would you kindly verify if residual activity of "COc1ccc2c(c[n+](C)c3c4cc5c(cc4ccc23)OCO5)c1OC" is strictly less than 40%?
Not fulfilled

Would you kindly verify if residual activity of "CC(C)[C@H](CO)Nc1nc(Nc2cccc(Cl)c2)c2ncn(C(C)C)c2n1" is strictly less than 40%?
Not fulfilled

Would you kindly verify if residual activity of "COc1cc(OC)c(/C=C2\C(=O)Nc3ccccc32)c(OC)c1" is strictly less than 40%?
Not fulfilled

Would you kindly verify if residual activity of "O=C1NC(=O)c2c1c1c3ccccc3n3c1c1c2c2ccccc2n1C1CCC3O1" is strictly less than 40%?
Not fulfilled

Would you kindly verify if residual activity of "CCn1cnc2c(Nc3cccc(Cl)c3)nc(N[C@@H]3CCCC[C@@H]3N)nc21" is strictly less than 40%?
Not fulfilled

Would you kindly verify if residual activity of C[S+]([O-])c1ccc(-c2nc(-c3ccc(F)cc3)c(-c3ccncc3)[nH]2)cc1 (stereo not given) is strictly less than 40%?
Not fulfilled

Would you kindly verify if residual activity of "CN[C@@H]1C[C@H]2O[C@@](C)([C@@H]1OC)n1c3ccccc3c3c4c(c5c6ccccc6n2c5c31)C(=O)NC4" is strictly less than 40%?
Fulfilled

Would you kindly verify if residual activity of "O=C1Nc2ccc3ncsc3c2/C1=C/c1c[nH]cn1" is strictly less than 40%?
Fulfilled

Would you kindly verify if residual activity of "COc1cc2ncnc(Nc3ccc(OCc4ccccc4)cc3)c2cc1OC" is strictly less than 40%?
Not fulfilled
